Molecular target: T1, human c-Met (Sino Biological) (human, UniProt P08581 25-932, limits assumed)
T1 construct: Analyte in the Biacore assay; also called antigen (c-Met); printed as "human c-Met antibody (Sino Biological, Beijing, China)"
T1 sequence (P08581 25-932 limits assumed): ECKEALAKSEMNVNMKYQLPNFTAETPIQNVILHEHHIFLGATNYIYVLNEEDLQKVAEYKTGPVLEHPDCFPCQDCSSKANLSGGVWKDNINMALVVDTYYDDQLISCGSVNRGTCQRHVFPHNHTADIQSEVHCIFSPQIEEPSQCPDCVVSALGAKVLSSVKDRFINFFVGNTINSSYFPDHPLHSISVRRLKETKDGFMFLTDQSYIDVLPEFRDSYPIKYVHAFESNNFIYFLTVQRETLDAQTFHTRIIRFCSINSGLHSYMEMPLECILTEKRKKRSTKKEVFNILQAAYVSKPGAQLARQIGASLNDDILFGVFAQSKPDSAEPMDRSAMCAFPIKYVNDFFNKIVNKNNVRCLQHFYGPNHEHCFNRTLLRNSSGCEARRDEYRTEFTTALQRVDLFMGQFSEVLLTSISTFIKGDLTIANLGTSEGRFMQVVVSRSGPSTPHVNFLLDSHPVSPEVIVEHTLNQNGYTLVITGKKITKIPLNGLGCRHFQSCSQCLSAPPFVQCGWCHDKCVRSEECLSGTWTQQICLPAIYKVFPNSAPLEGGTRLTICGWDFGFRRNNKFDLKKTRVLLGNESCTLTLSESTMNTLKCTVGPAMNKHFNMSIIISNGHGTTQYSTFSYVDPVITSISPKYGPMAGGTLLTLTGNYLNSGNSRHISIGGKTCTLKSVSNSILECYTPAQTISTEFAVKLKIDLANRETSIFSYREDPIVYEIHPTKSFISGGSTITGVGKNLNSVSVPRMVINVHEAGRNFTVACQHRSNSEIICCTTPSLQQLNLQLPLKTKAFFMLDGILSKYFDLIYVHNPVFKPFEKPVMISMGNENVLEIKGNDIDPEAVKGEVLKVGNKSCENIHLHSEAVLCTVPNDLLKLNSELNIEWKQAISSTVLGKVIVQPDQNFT
Assay: derived from the Biacore KD, printed 'Average' 3.52 x10^-10 M divided by the KD
measuredAttribute: Index 1 (binding affinity, inverse KD relative to the Average 3.52)
No unit in the answer, please; the number alone is enough.

I'd like to know its Index 1 (binding affinity, inverse KD relative to the Average 3.52). The binder in question is VH4/Vk2 (antibody, IgG1, V domains shown, Full IgG1/kappa expressed in HEK 293 EBNA cells) VH: QVQLVQSGAEVKKPGSSVKVSCQGSGYSFPTHWITWVRQAPGQGLEWMGTIDPTDSYNFYGPSFQGRVTITADSSTSTAYMELSSLRSEDTAMYYCARDGNYYDSRGYYYDTFDMWGQGTLVTVSS VL: DIQMTQSPSSLSASVGDRVTITCRASQGISTYLAWYQQKPGKAPKLLIYSASTLESGVPSRFSGSGSGTDFTLTISSLQPEDFATYYCQQADSFPLTFGGGTKVEIK
0.832

Check VH6/Vk0 (antibody, IgG1, V domains shown, Full IgG1/kappa expressed in HEK 293 EBNA cells) VH: QVQLVQSGAEVKKPGSSVKVSCKASGYSFPTHWITWVRQAPGQGLEWMGTIDPTDSYNFYGPSFQGRVTITADKSTSTAYMELSSLRSEDTAVYYCARDGNYYDSRGYYYDTFDMWGQGTLVTVSS VL: DIQMTQSPSFLSASVGDRVTITCRASQGISTYLAWYQQKPGTAPKLLIYSASTLESGVPSRFSGSGSGTDFTLTISSLQPEDSATYYCQQADSFPLTFGGGTKVEIK too.
0.85

The measurements presented in this section are drawn from patent US20210403576A1.
